Experiment: Clearance in C57BL/6 mouse at 5 mg/kg, iv
Assay type: ADME, organism-based
Design: dose 5 mg/kg, route intravenous
Settings: in vivo
Entries annotated with measured clearance
Please reply with the bare figure in mL/min/kg and do not write the unit itself.

>>> measured_value("Cc1ccccc1C(=O)C1CCN(c2ccc(C(=O)NCC(O)c3ccccc3)nn2)CC1 (configuration not stated)")
42

Now, please, on to the next compound.
stdin: Given the compound Cc1ccccc1C(=O)C1CCN(c2ccc(C(=O)NCC(O)c3cccnc3)nn2)CC1 (configuration not stated) , what is its reported clearance?
stdout: 29

* * *

Target: Stearoyl-CoA desaturase (Homo sapiens)
Sequence (O00767 whole entry): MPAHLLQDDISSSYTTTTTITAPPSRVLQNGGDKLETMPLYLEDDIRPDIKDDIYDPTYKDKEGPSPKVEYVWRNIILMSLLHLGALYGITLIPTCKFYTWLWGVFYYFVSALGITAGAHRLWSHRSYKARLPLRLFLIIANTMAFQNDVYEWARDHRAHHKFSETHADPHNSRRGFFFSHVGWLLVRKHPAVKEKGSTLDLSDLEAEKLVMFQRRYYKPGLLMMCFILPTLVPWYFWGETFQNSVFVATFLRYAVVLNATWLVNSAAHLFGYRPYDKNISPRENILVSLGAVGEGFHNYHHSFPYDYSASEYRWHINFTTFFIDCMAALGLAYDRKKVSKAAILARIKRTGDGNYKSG
Assay: Inhibition of Scd1 in human HEK293A cell microsomes assessed as conversion of [14C]stearate to [14C]oleate pretreated for 10 mins measured after 60 mins
Design: species or system HEK293-A, Microsome
MEASURED_METRIC: IC50

Illustrative cases are given below, each with its answer.
>>> measured_value("Cc1ccccc1C(=O)C1CCN(c2ccc(C(=O)NCC(O)c3ccc(F)cc3)nn2)CC1 (stereo unspecified)")
"0.005 µM"
>>> measured_value("Cc1ccccc1C(=O)C1CCN(c2ccc(C(=O)NCC(O)c3ccccc3F)nn2)CC1 (stereo unspecified)")
"0.022 µM"
>>> measured_value("Cc1ccccc1C(=O)C1CCN(c2ccc(C(=O)NCC(O)c3ccccn3)nn2)CC1 (stereo unspecified)")
"0.18 µM"
>>> measured_value("O=C(NCC(O)c1ccccc1)c1ccc(N2CCC(C(=O)c3ccc(F)cc3)CC2)nn1 (stereo unspecified)")
"0.118 µM"
>>> measured_value("O=C(NCCc1ccccc1)c1ccc(N2CCN(C(=O)c3ccccc3C(F)(F)F)CC2)cn1")
"0.25 µM"

Let us examine a further case.
stdin: Form field: reported IC50 of Cc1ccccc1C(=O)C1CCN(c2ccc(C(=O)NCC(O)c3cccnc3)nn2)CC1 (stereo unspecified)
stdout: 0.028 µM

* * *

Experiment: AUC (0 to 8 hrs) in C57BL/6 mouse at 20 mg/kg, po
Format: ADME, organism-based
Parameters: time < 8 hr, dose 20 mg/kg, route oral
Settings: plasma
Quick reference for AUC(0-t) at 8 h among some molecules
Supply the numeric figure in ng·h/mL, leaving out any unit text.

>>> measured_value("Cc1ccccc1C(=O)C1CCN(c2ccc(C(=O)NCC(O)c3ccccc3)nn2)CC1 (configuration not stated)")
500

Switching to the query record.
stdin: Which AUC(0-t) at 8 h value is on record for Cc1ccccc1C(=O)C1CCN(c2ccc(C(=O)NCC(O)c3cccnc3)nn2)CC1 (configuration not stated) ?
stdout: 7800

* * *

Assay: Metabolic stability in mouse liver S9 fraction assessed as compound remaining after 30 mins
Format: ADME, subcellular
Settings: read-out: Stability
MEASURED_METRIC: remaining at 0.5 h (%)
Use % as the unit, but write only the number.

>>> measured_value("O=C(NCC(O)c1ccccc1)c1ccc(N2CCC(C(=O)c3ccccc3OC(F)(F)F)CC2)nn1 (centres undefined)")
22
>>> measured_value("O=C(NCC(O)c1ccccc1)c1ccc(N2CCC(C(=O)c3ccccc3C(F)(F)F)CC2)nn1 (centres undefined)")
47
>>> measured_value("Cc1ccccc1C(=O)C1CCN(c2ccc(C(=O)NCC(O)c3cccnc3)nn2)CC1 (centres undefined)")
1.1

Please look at the following compound next.
stdin: GET /values?readout=remaining at 0.5 h&item= Cc1ccccc1C(=O)C1CCN(c2ccc(C(=O)NCC(O)c3ccccc3)nn2)CC1 (centres undefined)
stdout: 58

* * *

// values below are reported half-life
Test: Half life in C57BL/6 mouse at 5 mg/kg, iv
Assay type: ADME, organism-based
Parameters: dose 5 mg/kg, route intravenous
Details: in vivo
Give the value; after it, write the unit.

>>> measured_value("Cc1ccccc1C(=O)C1CCN(c2ccc(C(=O)NCC(O)c3ccccc3)nn2)CC1 (configuration not stated)")
"36 min"

Now look at this one.
stdin: Any idea what its half-life is? The compound is Cc1ccccc1C(=O)C1CCN(c2ccc(C(=O)NCC(O)c3cccnc3)nn2)CC1 (configuration not stated)
stdout: 78 min

* * *

Biological target: Stearoyl-CoA desaturase (Homo sapiens, UniProt O00767)
Test: Inhibition of human Scd1 expressed in HEK293A cells assessed as conversion of [14C]stearate to [14C]oleate pretreated for 30 mins measured after 4 hrs
Assay type: cell-based, HEK293-A
MEASURED_METRIC: IC50 (µM)
# number only, unit µM dropped from output

>>> measured_value("Cc1ccccc1C(=O)C1CCN(c2ccc(C(=O)NCC(O)c3ccncc3)nn2)CC1 (centres undefined)")
0.144
>>> measured_value("Cc1ccccc1C(=O)C1CCN(c2ccc(C(=O)NCC(O)c3ccccc3F)nn2)CC1 (centres undefined)")
0.06
>>> measured_value("Cc1ccccc1C(=O)C1CCN(c2ccc(C(=O)NCC(O)c3cccc(F)c3)nn2)CC1 (centres undefined)")
0.011
>>> measured_value("Cc1ccccc1C(=O)C1CCN(c2ccc(C(=O)NCC(O)c3ccsc3)nn2)CC1 (centres undefined)")
0.021
>>> measured_value("O=C(NCC(O)c1ccccc1)c1ccc(N2CCC(C(=O)c3ccccc3)CC2)nn1 (centres undefined)")
0.108
>>> measured_value("Cc1ccccc1C(=O)C1CCN(c2ccc(C(=O)NCC(O)c3cccs3)nn2)CC1 (centres undefined)")
0.025

stdin: Please report the recorded IC50 for O=C(NCC(O)c1ccccc1)c1ccc(N2CCC(C(=O)c3ccccc3OC(F)(F)F)CC2)nn1 (centres undefined) .
stdout: 0.103

stdin: Which IC50 value belongs to COc1ccccc1C(=O)C1CCN(c2ccc(C(=O)NCC(O)c3ccccc3)nn2)CC1 (centres undefined) ?
stdout: 1.05

stdin: Can you look up the measured IC50 of Cc1ccccc1C(=O)C1CCN(c2ccc(C(=O)NCC(O)c3cccnc3)nn2)CC1 (centres undefined) for me?
stdout: 0.043

* * *

Assay: Solubility in aqueous acidic solution at pH 1.2
Assay type: physicochemical
MEASURED_METRIC: solubility

A selection of reference data follows.
>>> measured_value("O=C(NCC(O)c1ccccc1)c1ccc(N2CCC(C(=O)c3ccccc3C(F)(F)F)CC2)nn1 (centres undefined)")
"84 µM"
>>> measured_value("O=C(NCC(O)c1ccccc1)c1ccc(N2CCC(C(=O)c3ccccc3OC(F)(F)F)CC2)nn1 (centres undefined)")
"83 µM"
>>> measured_value("Cc1ccccc1C(=O)C1CCN(c2ccc(C(=O)NCC(O)c3cccnc3)nn2)CC1 (centres undefined)")
"> 100 µM"

Now look at this entry.
stdin: Any idea what its solubility is? The compound is Cc1ccccc1C(=O)C1CCN(c2ccc(C(=O)NCC(O)c3ccccc3)nn2)CC1 (centres undefined)
stdout: 88 µM

* * *

Experiment: Solubility in neutral solution at pH 6.8
Format: physicochemical
# solubility annotations

>>> measured_value("Cc1ccccc1C(=O)C1CCN(c2ccc(C(=O)NCC(O)c3ccccc3)nn2)CC1 (centres undefined)")
"3 µM"
>>> measured_value("O=C(NCC(O)c1ccccc1)c1ccc(N2CCC(C(=O)c3ccccc3C(F)(F)F)CC2)nn1 (centres undefined)")
"< 0.5 µM"
>>> measured_value("Cc1ccccc1C(=O)C1CCN(c2ccc(C(=O)NCC(O)c3cccnc3)nn2)CC1 (centres undefined)")
"29 µM"

We next turn to a different compound, shown below.
stdin: Entry O=C(NCC(O)c1ccccc1)c1ccc(N2CCC(C(=O)c3ccccc3OC(F)(F)F)CC2)nn1 (centres undefined) : reported solubility = ?
stdout: < 0.5 µM

* * *

The entries below come with measured pIC50 values attached.
Biological target: Stearoyl-CoA desaturase (Homo sapiens, UniProt O00767)
Experiment: Inhibition of human Scd1 expressed in HEK293A cells assessed as conversion of [14C]stearate to [14C]oleate pretreated for 30 mins measured after 4 hrs
Type: cell-based, HEK293-A
Remember the convention: pIC50 equals -log10 of concentration in molar.

The following compounds have reported results that may help.
>>> measured_value("O=C(NCC(O)c1ccccc1)c1ccc(N2CCC(C(=O)c3ccc(F)cc3)CC2)nn1 (centres undefined)")
7.10
>>> measured_value("Cc1ccccc1C(=O)C1CCN(c2ccc(C(=O)NCC(O)c3ccc(F)cc3)nn2)CC1 (centres undefined)")
7.66
>>> measured_value("Cc1ccccc1C(=O)C1CCN(c2ccc(C(=O)NCC(O)c3ccccn3)nn2)CC1 (centres undefined)")
6.41

stdin: If you can, please state the reported pIC50 value of O=C(NCC(O)c1ccccc1)c1ccc(N2CCC(C(=O)c3ccccc3C(F)(F)F)CC2)nn1 (centres undefined) .
stdout: 7.85

From: ChEMBL document CHEMBL1153136
